Assay: Selectivity for HCV isolate BK NS4A-tethered single chain NS3 serine protease over human neutrophil elastase
Kindly state Selectivity ratio for each of the entries shown.
Form: value (number only, do not type unit).

Form field: reported Selectivity ratio of C=CCNC(=O)C(=O)C(CCC)NC(=O)[C@@H]1[C@@H]2[C@H](CN1C(=O)[C@@H](NC(=O)N[C@H](CN1CCCS1(=O)=O)C(C)(C)C)C(C)(C)C)C2(C)C (stereo not given in full)
230

Form field: reported Selectivity ratio of C=CCNC(=O)C(=O)C(CCC)NC(=O)[C@@H]1[C@@H]2[C@H](CN1C(=O)[C@@H](NC(=O)N[C@H](CN1CCCCS1(=O)=O)C(C)(C)C)C(C)(C)C)C2(C)C (stereo not given in full)
650

Form field: reported Selectivity ratio of C=CCNC(=O)C(=O)C(CCC)NC(=O)[C@@H]1[C@@H]2[C@H](CN1C(=O)[C@@H](NC(=O)N[C@H](CN1C(=O)c3ccccc3S1(=O)=O)C(C)(C)C)C(C)(C)C)C2(C)C (stereo not given in full)
310

Form field: reported Selectivity ratio of C#CCCC(NC(=O)[C@@H]1[C@@H]2[C@H](CN1C(=O)[C@@H](NC(=O)N[C@H](CN1Cc3ccccc3S1(=O)=O)C(C)(C)C)C(C)(C)C)C2(C)C)C(=O)C(=O)NCC=C (stereo not given in full)
380

Form field: reported Selectivity ratio of C=CCNC(=O)C(=O)C(CCC)NC(=O)[C@@H]1[C@@H]2[C@H](CN1C(=O)[C@@H](NC(=O)N[C@H](CN1CCCCS1(=O)=O)C1CCCCC1)C(C)(C)C)C2(C)C (stereo not given in full)
50
